Where these numbers come from: ChEMBL document CHEMBL3988442

System: Trypanosoma cruzi
Test: Trypanosoma cruzi phosphomannomutase and mannose-1-phosphate guanylyltransferase assay
Format: functional
Design: scale not given: direction of the effect not stated beside the values
Settings: 10 µM
measured_metric: Percent Effect
Please format your answer as a value with the unit trailing.

CCCNC(=O)COc1ccc(C)cn1 : 4.76%
Cc1nc(C)n(CC2CCCN2CC(=O)Nc2ccnn2C(C)C)n1 (configuration not stated) : -8.31%
COc1ccccc1C1CNC(=O)c2nc(-c3cnn(C)c3)[nH]c2C1 (configuration not stated) : 3.48%

Query :: Endpoint output: Percent Effect of CCN1CCN(Cc2coc(-c3cccc(F)c3)n2)CC1 . Value?
Result :: 5.06%

Query :: Which Percent Effect value belongs to CCn1nc(C)c2ncnc(NCC(=O)N3CCOCC3)c21 ?
Result :: 2.55%

Query :: Need Percent Effect, item CCC1CN(CC(=O)N2CCC2)CCN1CCOC (configuration not stated)
Result :: 3.49%

Query :: If you can, please state the reported Percent Effect value of O=C(NCC(F)F)N1CCC(n2ccc(C(F)(F)F)n2)CC1 .
Result :: 5.09%

Query :: Please give the measured Percent Effect for this compound: COc1cccc(CCNC(=O)CN2CCCC2c2noc(C)n2)c1 (configuration not stated)
Result :: -5.48%

Query :: Query (compound): c1ccc(Cn2cc(CNCC3CCCN3c3cccnn3)cn2)cc1 (configuration not stated) ; field requested: Percent Effect
Result :: 1.96%

Query :: // Percent Effect lookup, key: Cc1noc(CN2CCN(CC(C)O)CC2)n1 (configuration not stated)
Result :: 0.195%

Query :: Fill blank: measured Percent Effect of the compound CN(C)CCN1CCO[C@H]2CN(Cc3cnn(C)c3)C[C@H]21 is ____.
Result :: -4.2%

Query :: Query (compound): O=C(CCNc1ncccn1)NCCc1ccn(-c2ccccc2)n1 ; field requested: Percent Effect
Result :: 4.82%
